Reported GI50 by item:
test system: HCT-116 colon; test: NCI tumour cell line growth inhibition, 48 h
PROPERTY_LABEL: GI50

>>> print(df.to_string())
                                   compound  property_label  measurement
0  Nc1nc(N)c2c(n1)NC(c1sc(Cl)nc1Cl)CC(c1ccc3c(c1)OCO3)=N2 (stereo not given)            GI50      3.42 µM
1  CCCN1CCC=C(c2ccc(Nc3nc(Nc4ccccc4C(N)=O)c4cc[nH]c4n3)c(C)c2)C1            GI50      2.56 µM
2  O=C1/C(=C\c2ccccc2)C2OCC=C3CN4CCC56c7ccccc7N1C5C2C3CC46 (stereo not given)            GI50         6 µM
3  COc1ccc(-c2nc(C(=O)c3ccccc3)n(CC(=O)c3ccc(Cl)cc3)c2-c2ccc(OC)cc2)cc1            GI50     > 100 µM
4  CCOc1cc2c(cc1O)C(N)C[C@@H]1[C@@H]2CC[C@]2(C)[C@@H](O)CC[C@@H]12 (stereo not given in full)            GI50      39.7 µM

----------
system: SR leukemia; experiment: NCI tumour cell line growth inhibition, 48 h; in the data active = GI50 below about 0.43 µM; inactive = the rest
Outcomes: active, inactive

>>> print(df.to_string())
                                   molecule       cat
0  NC(=O)c1ccc(N(C(N)=O)c2c(F)cccc2F)nc1-c1ccc(F)cc1F  inactive
1  COc1ccc(C2=Nc3c/c(=C\c4c(O)[nH]c5cc(Cl)ccc45)ccc3=N2)cc1  inactive
2  O=C(c1ccc2ccccc2c1)c1c(C(F)(F)F)n([O-])c2ccc(F)cc2[n+]1=O    active
3  COc1cc(Cn2c(-c3ccccc3)cc3c2-c2oncc2CC3)cc(OC)c1    active
4  O=C1/C(=C\c2ccccc2)C2OCC=C3CN4CCC56c7ccccc7N1C5C2C3CC46 (stereo not given)  inactive

----------
test system: OVCAR-5 ovarian; assay: NCI tumour cell line growth inhibition, 48 h
Listing of entries alongside the reported TGI.

MOLECULE	TGI
COc1ccc(NC(=O)C2C(=O)N(c3ccc(OC)cc3)C(=O)/C2=N\NC(N)=O)cc1 (configuration not stated)	> 100 µM
O=S(=O)(O)SCCNCCCCCC1CCCCC1	23.8 µM
COC(=O)C(=O)C(C(=O)C(=O)Nc1cc(Cl)c(Cl)cc1Cl)c1nc2ccc([N+](=O)[O-])cc2[nH]c1=O (configuration not stated)	> 100 µM
O=S(=O)(O)c1ccc2c(N=Nc3ccc(Sc4ccc(N=Nc5c(O)ccc6cc(S(=O)(=O)O)ccc56)cc4)cc3)c(O)ccc2c1	> 100 µM
c1ccc(-c2nnc3nn4c(-c5ccccc5)cnnc4c3c2-c2ccccc2)cc1	> 100 µM
CSCCCNC(=O)[C@H](CSC)NC(=O)c1csc(CCNC(=O)[C@@H](NSc2ccccc2[N+](=O)[O-])C(C)O)n1 (some centres not stated)	> 100 µM
CCOC(=O)c1c(C)n(Cc2ccccc2)c2c1cc1oc(=O)c(=O)n3cnc2c13	> 50 µM
O=c1[nH]c2ccc(CC(=S)N3CCCCC3)cc2s1	> 100 µM
COc1ccc2c(c1)c1c3n2CCNN=C3CCC1	> 100 µM
CC(=O)[C-](C(C)=O)c1ccccc1.CC(=O)[C-](C(C)=O)c1ccccc1.CC(=O)[C-](C(C)=O)c1ccccc1.[Cl-].[Zr+4]	> 100 µM
COc1ccc(-c2nc(C(=O)c3ccccc3)n(CC(=O)c3ccc(Cl)cc3)c2-c2ccc(OC)cc2)cc1	> 100 µM
Cc1noc(/N=C2\C=C(Nc3onc(C)c3C)C(=O)c3ccccc32)c1C	> 100 µM
CC(C(N)=O)N(C)C(=O)c1cnc2ccccc2c1 (configuration not stated)	> 100 µM
COc1cc(/C=N/NC2=NCCN2)ccc1O	> 100 µM
c1ccc(-c2ccnc3c2ccc2c(-c4ccccc4)ccnc23)cc1	11.8 µM
S=c1nc[nH]c2c1ncn2C1CCCO1 (configuration not stated)	> 100 µM
C(#Cc1ccccc1)SC1=C(c2ccccc2)S/C(=C(\SC#Cc2ccccc2)c2ccccc2)S1	> 100 µM
CCCCCCCCCCCCCCCC1(OC)C[N+](C)(C)CCO1 (configuration not stated)	6.08 µM
COc1cccc(NC2=C(Cl)C(=O)N(Cc3ccc(Cl)cc3)C2=O)c1	43.2 µM
CCCCCCCCCCSC(=N)N	23.5 µM
C/C(=N/O)c1ccc(Nc2cc(-n3ccnc3)c3ccccc3n2)cc1	> 100 µM
C[C@H](CCC(=O)NCC(=O)O)[C@H]1CC[C@H]2[C@@H]3[C@H](O)C[C@@H]4C[C@H](O)CC[C@]4(C)[C@H]3CC[C@]12C	> 100 µM
CCOC(=O)c1cc(Br)c(-c2cc(C)co2)[nH]1	> 100 µM
CC1C2(C)OCC(C#N)(C(=N)O2)C1(C#N)C#N (configuration not stated)	85.6 µM
Cn1cc(NC(=O)Nc2cc(C(=O)Nc3cc(C(=O)Nc4cc(S(=O)(=O)O)c5cc(S(=O)(=O)O)cc(S(=O)(=O)O)c5c4)n(C)c3)n(C)c2)cc1C(=O)Nc1cc(C(=O)Nc2cc(S(=O)(=O)O)c3cc(S(=O)(=O)O)cc(S(=O)(=O)O)c3c2)n(C)c1	> 100 µM
O=c1[nH]cc(C(F)(C(F)(F)F)C(F)(F)F)c(=O)[nH]1	> 100 µM
O=S(=O)(O)c1cc(S(=O)(=O)O)c2c(N=Nc3ccc(N=Nc4ccccc4)cc3)c(O)ccc2c1	> 100 µM

----------
tested on: MCF7 breast; test: NCI tumour cell line growth inhibition, 48 h; in the data active = GI50 below about 0.43 µM; inactive = the rest
Where a SMILES comes first, the peptide text is derived from it. The star is where a group is joined. Trt = c1ccc(C(c2ccccc2)(c2ccccc2)*)cc1; Cbz = O=C(OCc1ccccc1)*
Outcomes: 1.0 (active), 0.0 (inactive)

MOLECULE	CAT
COC(=O)C(CSC(c1ccccc1)(c1ccccc1)c1ccccc1)NC(=O)C(CC(N)=O)NC(=O)OCc1ccccc1 (stereo not drawn) (Cbz-Asn-Cys(Trt)-OMe; configuration not given here)	0.0
C=C(C)[C@@H]1CC[C@]2(CO)CC[C@]3(C)[C@H](CC[C@@H]4[C@@]5(C)CC[C@H](NCO)C(C)(C)[C@@H]5CC[C@]43C)[C@@H]12	0.0
NC(=O)c1ccc(N(C(N)=O)c2c(F)cccc2F)nc1-c1ccc(F)cc1F	0.0
CCCCCCCCCCSC(=N)N	0.0
O=C(Nc1nc2ccccc2s1)c1cc(-c2ccc(F)cc2)n2nc(-c3ccccc3)cc2n1	0.0
Cc1ccc(-c2n[nH]c(=O)c3noc(-c4ccc(C)cc4)c23)cc1	0.0
CN(C(=O)CNC(=O)/C=C/c1cccc(Cl)c1)C1CCS(=O)(=O)CC1	0.0
COc1cc2c(cc1OCCCOc1ccc(-c3nc4ccc(N5CCN(C)CC5)cc4[nH]3)cc1)N=C[C@@H]1CCCN1C2=O	1.0

----------
# maps each entry to its TGI
system: MOLT-4 leukemia; assay: NCI tumour cell line growth inhibition, 48 h
PROPERTY_LABEL: TGI

>>> df
                                    molecule  property_label  measurement
 0  CC1=CC(=O)NP(=O)(C23CC4CC(CC(C4)C2)C3)N1 (stereo unspecified)             TGI     > 100 µM
 1  CC(C)[Si](OCC1CC(C#N)OC(C)(C)O1)(C(C)C)C(C)C (stereo unspecified)             TGI      41.1 µM
 2  CN1CCC2(CC1)C(=NC1CCCCC1)NC(=O)N2c1ccccc1             TGI     > 100 µM
 3  C/C(=N\NS(=O)(=O)c1ccc([N+](=O)[O-])cc1)c1ccc[n+]([O-])n1             TGI      11.5 µM
 4  O=C(NCCCCCN1CCC2(CCCCC2)CC1)C(C1CCCCC1)C1CCCCC1             TGI      4.87 µM
 5  Cc1ccc(/C=C2/N=C(N/N=C\c3ccccc3)NC2=O)cc1             TGI      72.2 µM
 6  Cc1ccc(-c2n[nH]c(=O)c3noc(-c4ccc(C)cc4)c23)cc1             TGI     > 100 µM
 7  C=C(C)[C@@H]1CC[C@]2(CO)CC[C@]3(C)[C@H](CC[C@@H]4[C@@]5(C)CC[C@H](NCO)C(C)(C)[C@@H]5CC[C@]43C)[C@@H]12             TGI      2.56 µM
 8  N#C/C(=C\c1ccc2[nH]ccc2c1)C(=O)c1ccc(O)c(O)c1             TGI     > 100 µM
 9  Nc1c(C(=O)Nc2cccc3ccccc23)sc2nc3c(cc12)C(=O)CCC3             TGI     > 100 µM
10        O=c1[nH]c2ccc(CC(=S)N3CCCCC3)cc2s1             TGI     > 100 µM
11  CC(=O)NC(CCCN(Cc1ccccc1)C(=O)N(C)N=O)C(=O)NCc1ccccc1 (stereo unspecified)             TGI     > 100 µM
12  Cn1cc(C2=C(c3cn(CCCCC(=N)N)c4ccccc34)C(=O)NC2=O)c2ccccc21             TGI      > 25 µM
13  COc1ccc2c(c1)/C(=N/OC(C)=O)c1c-2cnc2ccccc12             TGI      92.2 µM
14  O=c1[nH]c2ccc([N+](=O)[O-])cc2nc1/C=C(\O)c1ccccc1             TGI     > 100 µM
15               COc1cc(/C=N/NC2=NCCN2)ccc1O             TGI     > 100 µM
16  COc1cc2c(cc1OCCCOc1ccc(-c3nc4ccc(N5CCN(C)CC5)cc4[nH]3)cc1)N=C[C@@H]1CCCN1C2=O             TGI    < 0.01 µM
17  Nc1nc(N)c2c(n1)NC(c1sc(Cl)nc1Cl)CC(c1ccc3c(c1)OCO3)=N2 (stereo unspecified)             TGI      41.9 µM
18  O=C1/C(=C\c2ccccc2)C2OCC=C3CN4CCC56c7ccccc7N1C5C2C3CC46 (stereo unspecified)             TGI     > 100 µM
19        CCCCCCCCCCCCO[P+](=O)OCCCCCCCCCCCC             TGI     > 100 µM
20  Cc1c(Cl)c(C)c(Cc2c(C)c(Cl)c(C)c(Cl)c2O)c(O)c1Cl             TGI      13.4 µM
